condition description: in n-propanol, 323.15 K
outcome measure: solubility (mole fraction)

{"sample smiles": "Nc1nc2ccc(OC(F)(F)F)cc2s1", "outcome measure": "solubility (mole fraction)", "experimental result": 0.333}

* * *

condition description: in n-pentanol, 288.15 K
outcome measure: solubility (mole fraction)

{"sample smiles": "Nc1nc2ccc(OC(F)(F)F)cc2s1", "outcome measure": "solubility (mole fraction)", "experimental result": 0.216}

* * *

condition description: in n-pentyl acetate, 298.15 K

{"sample smiles": "Nc1nc2ccc(OC(F)(F)F)cc2s1", "solubility (mole fraction)": 0.385}

* * *

condition description: in 2-propoxyethanol, 288.15 K

{"sample smiles": "Nc1nc2ccc(OC(F)(F)F)cc2s1", "solubility (mole fraction)": 0.469}

* * *

condition description: in n-butanol, 313.15 K

{"sample smiles": "Nc1nc2ccc(OC(F)(F)F)cc2s1", "solubility (mole fraction)": 0.288}

* * *

condition description: in isopropyl acetate, 298.15 K

{"sample smiles": "Nc1nc2ccc(OC(F)(F)F)cc2s1", "solubility (mole fraction)": 0.376}

* * *

condition description: in acetone, 298.15 K

{"sample smiles": "Nc1nc2ccc(OC(F)(F)F)cc2s1", "solubility (mole fraction)": 0.414}

* * *

condition description: in DMAc, 323.15 K
outcome measure: solubility (mole fraction)

{"sample smiles": "Nc1nc2ccc(OC(F)(F)F)cc2s1", "experimental result": 0.203}

* * *

condition description: in n-butanol, 293.15 K

{"sample smiles": "Nc1nc2ccc(OC(F)(F)F)cc2s1", "solubility (mole fraction)": 0.221}

* * *

condition description: in isopropyl acetate, 308.15 K
outcome measure: solubility (mole fraction)

{"sample smiles": "Nc1nc2ccc(OC(F)(F)F)cc2s1", "outcome measure": "solubility (mole fraction)", "experimental result": 0.395}

* * *

condition description: in n-propyl acetate, 298.15 K

{"sample smiles": "Nc1nc2ccc(OC(F)(F)F)cc2s1", "solubility (mole fraction)": 0.389}

* * *

condition description: in acetone, 288.15 K

{"sample smiles": "Nc1nc2ccc(OC(F)(F)F)cc2s1", "solubility (mole fraction)": 0.387}

* * *

condition description: in 2-propoxyethanol, 308.15 K

{"sample smiles": "Nc1nc2ccc(OC(F)(F)F)cc2s1", "solubility (mole fraction)": 0.514}

* * *

condition description: in 2-methoxyethanol, 308.15 K

{"sample smiles": "Nc1nc2ccc(OC(F)(F)F)cc2s1", "solubility (mole fraction)": 0.449}

* * *

condition description: in acetonitrile, 283.15 K

{"sample smiles": "Nc1nc2ccc(OC(F)(F)F)cc2s1", "solubility (mole fraction)": 0.176}

* * *

condition description: in acetonitrile, 293.15 K
outcome measure: solubility (mole fraction)

{"sample smiles": "Nc1nc2ccc(OC(F)(F)F)cc2s1", "experimental result": 0.216}

* * *

condition description: in 2-methoxyethanol, 288.15 K

{"sample smiles": "Nc1nc2ccc(OC(F)(F)F)cc2s1", "solubility (mole fraction)": 0.405}

* * *

condition description: in acetone, 303.15 K

{"sample smiles": "Nc1nc2ccc(OC(F)(F)F)cc2s1", "solubility (mole fraction)": 0.425}

* * *

condition description: in n-propyl acetate, 288.15 K

{"sample smiles": "Nc1nc2ccc(OC(F)(F)F)cc2s1", "solubility (mole fraction)": 0.368}

* * *

condition description: in isopropyl acetate, 323.15 K

{"sample smiles": "Nc1nc2ccc(OC(F)(F)F)cc2s1", "solubility (mole fraction)": 0.443}

* * *

condition description: in acetone, 293.15 K

{"sample smiles": "Nc1nc2ccc(OC(F)(F)F)cc2s1", "solubility (mole fraction)": 0.401}

* * *

condition description: in 2-propoxyethanol, 318.15 K

{"sample smiles": "Nc1nc2ccc(OC(F)(F)F)cc2s1", "solubility (mole fraction)": 0.53}

* * *

condition description: in 2-propoxyethanol, 283.15 K

{"sample smiles": "Nc1nc2ccc(OC(F)(F)F)cc2s1", "solubility (mole fraction)": 0.461}

* * *

condition description: in n-propanol, 283.15 K

{"sample smiles": "Nc1nc2ccc(OC(F)(F)F)cc2s1", "solubility (mole fraction)": 0.189}

* * *

condition description: in 2-methoxyethanol, 298.15 K
outcome measure: solubility (mole fraction)

{"sample smiles": "Nc1nc2ccc(OC(F)(F)F)cc2s1", "outcome measure": "solubility (mole fraction)", "experimental result": 0.428}

* * *

condition description: in n-pentyl acetate, 283.15 K

{"sample smiles": "Nc1nc2ccc(OC(F)(F)F)cc2s1", "solubility (mole fraction)": 0.356}

* * *

condition description: in n-propyl acetate, 318.15 K

{"sample smiles": "Nc1nc2ccc(OC(F)(F)F)cc2s1", "solubility (mole fraction)": 0.446}

* * *

condition description: in n-propanol, 293.15 K

{"sample smiles": "Nc1nc2ccc(OC(F)(F)F)cc2s1", "solubility (mole fraction)": 0.215}

* * *

condition description: in ethanol, 308.15 K
outcome measure: solubility (mole fraction)

{"sample smiles": "Nc1nc2ccc(OC(F)(F)F)cc2s1", "experimental result": 0.254}

* * *

condition description: in 2-methoxyethanol, 318.15 K
outcome measure: solubility (mole fraction)

{"sample smiles": "Nc1nc2ccc(OC(F)(F)F)cc2s1", "experimental result": 0.469}

* * *

condition description: in isopropyl acetate, 313.15 K

{"sample smiles": "Nc1nc2ccc(OC(F)(F)F)cc2s1", "solubility (mole fraction)": 0.411}

* * *

condition description: in n-pentyl acetate, 308.15 K

{"sample smiles": "Nc1nc2ccc(OC(F)(F)F)cc2s1", "solubility (mole fraction)": 0.408}

* * *

condition description: in n-propanol, 303.15 K
outcome measure: solubility (mole fraction)

{"sample smiles": "Nc1nc2ccc(OC(F)(F)F)cc2s1", "outcome measure": "solubility (mole fraction)", "experimental result": 0.249}

* * *

condition description: in isopropyl acetate, 288.15 K

{"sample smiles": "Nc1nc2ccc(OC(F)(F)F)cc2s1", "solubility (mole fraction)": 0.351}

* * *

condition description: in ethanol, 313.15 K

{"sample smiles": "Nc1nc2ccc(OC(F)(F)F)cc2s1", "solubility (mole fraction)": 0.273}

* * *

condition description: in n-pentanol, 313.15 K

{"sample smiles": "Nc1nc2ccc(OC(F)(F)F)cc2s1", "solubility (mole fraction)": 0.303}

* * *

condition description: in ethanol, 303.15 K

{"sample smiles": "Nc1nc2ccc(OC(F)(F)F)cc2s1", "solubility (mole fraction)": 0.236}

* * *

condition description: in isopropyl acetate, 318.15 K

{"sample smiles": "Nc1nc2ccc(OC(F)(F)F)cc2s1", "solubility (mole fraction)": 0.43}

* * *

condition description: in acetonitrile, 303.15 K
outcome measure: solubility (mole fraction)

{"sample smiles": "Nc1nc2ccc(OC(F)(F)F)cc2s1", "experimental result": 0.267}

* * *

condition description: in 2-propoxyethanol, 298.15 K
outcome measure: solubility (mole fraction)

{"sample smiles": "Nc1nc2ccc(OC(F)(F)F)cc2s1", "experimental result": 0.496}

* * *

condition description: in n-butanol, 288.15 K

{"sample smiles": "Nc1nc2ccc(OC(F)(F)F)cc2s1", "solubility (mole fraction)": 0.207}

* * *

condition description: in ethanol, 293.15 K

{"sample smiles": "Nc1nc2ccc(OC(F)(F)F)cc2s1", "solubility (mole fraction)": 0.212}

* * *

condition description: in acetone, 283.15 K

{"sample smiles": "Nc1nc2ccc(OC(F)(F)F)cc2s1", "solubility (mole fraction)": 0.379}

* * *

condition description: in 2-propoxyethanol, 278.15 K

{"sample smiles": "Nc1nc2ccc(OC(F)(F)F)cc2s1", "solubility (mole fraction)": 0.449}
